- experiment: CC50 in the structure table of GC543 and GC583 (no method given)
- Assay type: cell-based
- conditions_used: cells not given
assay_readout: CC50

substance_smiles	assay_readout	assay_result
O=C[C@@H](C[C@@H]1CCNC1=O)NC(=O)[C@H](CC1CCCCC1)NC(=O)OCc1ccccc1	CC50	> 100 µM

Next item in the queue.
Prompt: Specify reported CC50 for the compound shown: O=C[C@@H](C[C@@H]1CCNC1=O)NC(=O)[C@H](CC1CCCCC1)NC(=O)OCc1cccc(Cl)c1
Response: > 100 µM
